Consider the following binders and their measured koff readings.
- target: T1, wild type human CD47 (Acro Biosystems, cat. no. CD7-H5227) (human, UniProt Q08722 19-139)
- T1 construct: Bought protein used as SPR analyte; also called Human CD47 wt; wild-type CD47
- T1 sequence (Q08722 19-139 limits assumed): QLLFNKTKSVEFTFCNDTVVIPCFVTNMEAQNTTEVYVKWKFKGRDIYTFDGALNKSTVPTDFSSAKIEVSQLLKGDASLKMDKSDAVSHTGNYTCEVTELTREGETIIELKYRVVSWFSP
- protocol: SPR, IgG captured, CD47 in flow; exp 2;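 further: IgG from HEK293 cell supernatants tested by SPR on a BIAcore T200, C33G mutein prevents IgV homodimers for monovalent affinity, KD derived from association and dissociation rates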
// return numeric value only (unit: s⁻¹, not printed)

binder	koff, s⁻¹
108VH5.M10 / 108VL1.M5 (antibody, human IgG4 S228P, kappa, V domains shown, Full-length IgG4 (S228P), kappa; also called VH5.M10 VL1.M5) VH: EVQLVQSGAEVKKPGASVKVSCKASGYTFTHHWIHWVRQAPGQGLEWMGMIDASDSETRYAQKFQGRVTMTRDTSTSTVYMELSSLRSEDTAVYYCARLGRYYFDYWGQGTLVTVSS VL: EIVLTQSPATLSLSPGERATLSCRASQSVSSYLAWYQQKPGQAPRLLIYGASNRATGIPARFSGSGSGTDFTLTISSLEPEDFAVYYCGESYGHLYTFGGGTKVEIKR	0.0019
108VH5.M15 / 108VL1.M5 (antibody, human IgG4 S228P, kappa, V domains shown, Full-length IgG4 (S228P), kappa; also called VH5.M15 VL1.M5) VH: EVQLVQSGAEVKKPGASVKVSCKASGYTFTHHWIHWVRQAPGQGLEWMGMIDASDSSTRYAQKFQGRVTMTRDTSTSTVYMELSSLRSEDTAVYYCARLGRYYFDYWGQGTLVTVSS VL: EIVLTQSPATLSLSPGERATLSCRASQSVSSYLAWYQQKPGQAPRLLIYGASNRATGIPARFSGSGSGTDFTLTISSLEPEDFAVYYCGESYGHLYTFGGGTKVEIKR	0.0048
108VH5 / 108VL1.M5 (antibody, human IgG4 S228P, kappa, V domains shown, Full-length IgG4 (S228P), kappa; also called VH5 VL1.M5) VH: EVQLVQSGAEVKKPGASVKVSCKASGYSFTHHWIHWVRQAPGQGLEWMGMIDPSDSETRLSQKFKDRVTMTRDTSTSTVYMELSSLRSEDTAVYYCARLGRYYFDYWGQGTLVTVSS VL: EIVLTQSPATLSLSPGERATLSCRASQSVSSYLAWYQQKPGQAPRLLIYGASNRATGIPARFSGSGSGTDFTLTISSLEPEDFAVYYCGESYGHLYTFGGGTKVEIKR	0.00059

With those in mind, consider the next binder.
[ask] Provide measured koff value, entry: chimeric antibody 108C10A6 (antibody, V domains shown, Chimeric antibody with mouse variable domains; captured through human Fc; also called VH / VL) VH: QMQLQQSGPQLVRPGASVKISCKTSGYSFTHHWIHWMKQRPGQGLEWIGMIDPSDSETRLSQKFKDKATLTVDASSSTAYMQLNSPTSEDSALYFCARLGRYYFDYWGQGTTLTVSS VL: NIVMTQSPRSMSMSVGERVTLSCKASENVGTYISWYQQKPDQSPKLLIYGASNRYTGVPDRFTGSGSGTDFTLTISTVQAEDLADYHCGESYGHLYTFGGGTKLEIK
[reply] 0.00032
